Molecular target: T1, ExoI Arg316Ala variant (Escherichia coli, UniProt P04995 1-475)
T1 construct: residue flanks peptide A; also called R316A; Arg316 variant
T1 sequence: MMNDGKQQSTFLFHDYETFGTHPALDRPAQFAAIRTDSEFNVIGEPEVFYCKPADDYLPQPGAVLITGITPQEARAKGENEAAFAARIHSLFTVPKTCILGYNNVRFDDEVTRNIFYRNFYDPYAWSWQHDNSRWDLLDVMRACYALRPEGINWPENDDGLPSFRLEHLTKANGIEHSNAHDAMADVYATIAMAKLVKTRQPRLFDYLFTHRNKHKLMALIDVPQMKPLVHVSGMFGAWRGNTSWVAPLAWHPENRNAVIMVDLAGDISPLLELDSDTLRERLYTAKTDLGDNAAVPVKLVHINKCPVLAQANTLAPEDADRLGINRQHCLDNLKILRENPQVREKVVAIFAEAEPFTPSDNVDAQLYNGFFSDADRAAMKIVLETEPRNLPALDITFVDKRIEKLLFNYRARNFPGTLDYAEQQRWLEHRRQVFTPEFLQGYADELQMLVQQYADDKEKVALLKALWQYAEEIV
Assay: fluorescence anisotropy equilibrium binding (Kd,app), ExoI variant titrated into fluorescein-labeled peptide
Where no end group is shown, it is not given here. fluorescein = fluorescein moiety attached to the N-terminus of the peptide (N-terminal fluorescein label)
Observation type: Kd

// sample fluorescein-WMDFDDDIPF (also called F-SSB-Ct; F-WT) [fluorescein-labeled SSB C-terminal peptide (fluorescein-WMDFDDDIPF)] , its Kd was > 1000 nM
